systemName: Lysosomal acid glucosylceramidase (Homo sapiens)
protocolSummary: raising glucocerebrosidase activity, Gaucher cells – primary screen (AID 784)
protocolConditions: L444P Gaucher fibroblasts, 4-MU-glucoside fluorescence, 3 days; at 10 µM
Out of some 30,000 compounds screened, about 130 (0.43%) were called active. Rule as the data show it: active = activation above about 65%; inactive = the rest. This is one part of a sample in which actives are shown more often than they occur.
Labels: active, inactive

{"columns": ["compound", "assignedCategory"],
 "data": [
  ["Cn1c(=O)[nH]c(=O)c2c1nc(N1CCCCCC1)n2CC(=O)c1ccccc1", "inactive"],
  ["CC(C)C[C@H](NC(=O)NCCc1ccc(Cl)cc1)C(=O)O", "inactive"],
  ["Cc1cc(C)c2c(c1)cc(C)c1nnc(SCC(=O)Nc3cc(C)on3)n12", "inactive"],
  ["COc1ccc(NC(=O)c2c(C)oc3c2CCCC3)cc1", "inactive"],
  ["CCn1cc(C(=O)NCc2ccc(OC)cc2OC)c(=O)c2ccc(C)nc21", "inactive"],
  ["Fc1ccccc1CCNc1nnnn1-c1ccccc1", "inactive"],
  ["COc1ccccc1N1CCN(C(=O)CSc2nnc(-c3ccoc3C)o2)CC1", "inactive"],
  ["COc1ccc(CC(=O)Nc2ccc3c(c2)CCC3)cc1S(=O)(=O)N1CCOCC1", "inactive"],
  ["Cc1ccc(OCCCC(=O)N2CCOCC2)c(C)c1", "inactive"],
  ["CC(=O)c1cnc(Nc2nc(C)c3cc(C)ccc3n2)nc1C", "inactive"],
  ["CCOC(=O)C(C)Oc1cccc2c(=O)n(CC(=O)N3CCc4ccccc43)ccc12 (stereo not given)", "inactive"],
  ["CC(=O)OCc1cc2cc(C)ccc2[nH]c1=O", "inactive"],
  ["Cc1nnc(SCC(=O)N2CCc3ccccc32)n1-c1ccccc1", "inactive"],
  ["O=C(NC1CCN(Cc2ccccc2)CC1)c1ccccc1F", "inactive"],
  ["COCCCNC(=O)c1c(F)c(F)c(F)c(F)c1F", "inactive"],
  ["COc1ccc(CCn2nnnc2C(c2ccccc2)N2CCN(C)CC2)cc1OC (stereo not given)", "inactive"],
  ["CCOC(=O)C1(Cc2ccc(O)cc2)NC(c2ccccc2F)C2C(=O)N(C)C(=O)C21 (stereo not given)", "active"],
  ["CCOC(=O)c1c(NC(=O)CCC(=O)NCc2ccco2)sc2c1CCCC2", "inactive"],
  ["CCOc1ccccc1-n1c(SCC(=O)N2CCCC2)nnc1-c1ccoc1C", "inactive"],
  ["COC(=O)CCSc1nccn1Cc1ccccc1", "inactive"],
  ["COc1ccc(S(=O)(=O)N(CCCN2CCCC2=O)Cc2cc3c(C)ccc(C)c3[nH]c2=O)cc1", "inactive"],
  ["CCOC(=O)C1(c2ccccc2)NC(c2ccc(N(C)C)cc2)C2C(=O)N(C)C(=O)C21 (stereo not given)", "inactive"],
  ["COc1c(C)cccc1C(=O)Nc1cc(Cl)ccc1N1CCOCC1", "inactive"],
  ["COC(C)(C)[C@]12CC(O)(C(C)C)ON1[C@H]1CCCCC1N2O (stereo not given in full)", "inactive"],
  ["CCc1cc(=O)oc2cc(C)cc(OC(C)C(=O)O)c12 (stereo not given)", "inactive"],
  ["C=CCn1c(N)c(S(=O)(=O)c2cccs2)c2nc3ccccc3nc21", "inactive"],
  ["CCN(C(=O)CSc1ncn[nH]1)c1cccc2ccccc12", "inactive"],
  ["NC(CSC12CC3CC(CC(C3)C1)C2)C(=O)O (stereo not given)", "inactive"],
  ["Cc1cc(OCCN2CCCC2)ccc1C(C)C", "inactive"],
  ["CCn1nnc(NC(=O)c2c(OC)cccc2OC)n1", "inactive"]
]}
